Recorded measurements of Particle size, one per entry
assay: Particle size evaluated in Microtrac-X100 equipment; type: physicochemical; conditions: 90% of particles; other batches, ethyl acetate crystallization

Past entries and their recorded results:
{"compound": "OC[C@H]1O[C@H](O[C@]2(CCl)O[C@H](CCl)[C@@H](O)[C@@H]2O)[C@H](O)[C@@H](O)[C@H]1Cl [PP 02]", "Particle size": "90% ≦ 9.125 microns"}
{"compound": "OC[C@H]1O[C@H](O[C@]2(CCl)O[C@H](CCl)[C@@H](O)[C@@H]2O)[C@H](O)[C@@H](O)[C@H]1Cl [PP 03]", "Particle size": "90% ≦ 9.165 microns"}

What Particle size value was documented for this compound, OC[C@H]1O[C@H](O[C@]2(CCl)O[C@H](CCl)[C@@H](O)[C@@H]2O)[C@H](O)[C@@H](O)[C@H]1Cl [PRO 05] ?
90% ≦ 9.183 microns

Particle size lookup needed for OC[C@H]1O[C@H](O[C@]2(CCl)O[C@H](CCl)[C@@H](O)[C@@H]2O)[C@H](O)[C@@H](O)[C@H]1Cl [PRO 01] , thanks.
90% ≦ 9.035 microns

Data credit: patent US20090324513A1
